Reference for the values: patent US5079241A

# ASSAY: pharmacokinetic behavior in baboons, 20 mg/kg (Tables 5 and 7)
# Format: in vivo
# CONDITION_LABEL: baboon, plasma, 20 mg/kg (Table 7), trapezium method, read-out: AUC 0-.infin.

MOLECULE	AUC(0-inf) [µg·h/mL]
CC(C)(ON=C(C(=O)NC1C(=O)N2C(C(=O)O)=C(COC(=O)c3ccc(NS(=O)(=O)CCN)cc3)CSC12)c1csc(N)n1)C(=O)O (centres unmarked) [C, reference compound]	1210
CO/N=C(\C(=O)NC1C(=O)N2C(C(=O)O)=C(COC(=O)c3ccc(NS(=O)(=O)CCN)c(O)c3)CSC12)c1csc(N)n1 (centres unmarked)	3320
